Below: a set of entries, each annotated with reported pIC50.
- TESTED ON: Glutamate NMDA receptor
- MEASUREMENT NOTES: Inhibition of [3H]dizocilpine binding to N-methyl-D-aspartate (NMDA) receptor complex in rat brain membranes
Just the number, please; pIC50 means minus log10 of the concentration in mol/L.

Before answering, review these 6 worked examples.
- C(=C1CCN(Cc2ccc(C3=NCCN3)cc2)CC1)c1ccc(C2=NCCN2)cc1: 4.45
- c1cc(C2=NCCN2)ccc1OC[C@@H]1C[C@H]1COc1ccc(C2=NCCN2)cc1: 4.78
- c1cc(N2CCN(c3ccc(C4=NCCN4)cc3)CC2)ccc1C1=NCCN1: 4.74
- c1cc(N2CCCN(c3ccc(C4=NCCN4)cc3)CC2)ccc1C1=NCCN1: 5.30
- c1cc(C2=NCCN2)ccc1CC1CCCN(c2ccc(C3=NCCN3)cc2)C1 (stereo not given): 5.11
- N#Cc1ccc(N2CCCN(c3ccc(C#N)cc3)CC2)cc1: 4.34

Give recorded pIC50 with Glutamate NMDA receptor for the following compound: `N=C(N)c1ccc(N2CCCN(c3ccc(C(=N)N)cc3)CC2)cc1`
5.92

Give recorded pIC50 with Glutamate NMDA receptor for the following compound: `N=C(N)c1ccc(NC(=O)c2cccc(C(=O)Nc3ccc(C(=N)N)cc3)n2)cc1`
4.18

Give recorded pIC50 with Glutamate NMDA receptor for the following compound: `N=C(N)c1ccc(N2CCN(c3ccc(C(=N)N)cc3)CC2)cc1`
5.27

----------
- TESTED ON: Glutamate NMDA receptor
- MEASUREMENT NOTES: Inhibition of [3H]dizocilpine binding to N-methyl-D-aspartate (NMDA) receptor complex in rat brain membranes
Below: a set of entries, each annotated with reported IC50.
Reply with just the number (in µM).

* N=C(N)c1ccc(OCCCCCOc2ccc(C(=N)N)cc2)cc1 [PENTAMIDINE] | 2.59

Give recorded IC50 with Glutamate NMDA receptor for the following compound: `c1cc(C2=NCCN2)ccc1CC1CCN(c2ccc(C3=NCCN3)cc2)CC1`
6.29

Give recorded IC50 with Glutamate NMDA receptor for the following compound: `C(=C1/CCCN(c2ccc(C3=NCCN3)cc2)C1)/c1ccc(C2=NCCN2)cc1`
8.35

Give recorded IC50 with Glutamate NMDA receptor for the following compound: `N=C(N)c1ccc(OC[C@@H]2C[C@H]2COc2ccc(C(=N)N)cc2)cc1`
11.7
